Assay: qHTS assay to identify small molecule agonists of the AP-1 signaling pathway (AID 1159526); further: on the % scale 0 is the no-effect control and ±100 the full control effect
Conditions: ME-180 (cervical carcinoma) AP-1-bla reporter, beta-lactamase FRET ratio, 5 h; series mostly up to 76.8 µM
Results filed as inconclusive are left out. Activity calls are given as the source filed them. The call rests on the fitted dose curve.
PROPERTY_LABEL: outcome

CC(C)OC(C)C :: inactive
NS(=O)(=O)c1cc(-c2nn[nH]n2)c(NCc2cccs2)cc1Cl :: inactive
COC(=O)/C=C(/C)N :: inactive
O=[N+]([O-])c1nccn1CO[C@@H](CO)[C@H](O)CO :: inactive
Cn1cnc2c(F)c(Nc3ccc(Br)cc3Cl)c(C(=O)NOCCO)cc21 :: inactive
Nc1cccc(S(=O)(=O)O)c1 :: inactive
O=C1CCCc2ccccc21 :: inactive
CCCCCCCCOC(=O)CCCCCCCCC(=O)OCCCCCCCC :: inactive

Query: Fill blank: measured outcome of the compound CCN1CC(CCN2CCOCC2)C(c2ccccc2)(c2ccccc2)C1=O (stereo not drawn) is ____.
Response: inactive

Query: Another: O=C(Cl)c1cccc([N+](=O)[O-])c1
Response: inactive

Query: Another: CCCCC(=O)O[C@]1(C(=O)CO)[C@H](C)C[C@H]2[C@@H]3CCC4=CC(=O)C=C[C@]4(C)[C@@]3(F)[C@@H](O)C[C@@]21C
Response: inactive

Query: Another: OCc1ccccc1O
Response: inactive

Query: Another: CC(C)S
Response: inactive

* * *

Assay: qHTS RealTime-Glo MT Cell Viability Assay in HepG2 cells - 32 hour (AID 1224877); further: on the % scale 0 is the no-effect control and ±100 the full control effect; nearly all actives have a fitted effect of over 55% in size
Conditions: RealTime-Glo luminescence; series mostly up to 76.8 µM
Records with an inconclusive call do not appear. The source made the active and inactive calls. Calls follow the shape of the dose curve; as a rule, active = well fitted cell-killing curve with a large enough effect in the repeat runs; inconclusive = weak or mixed curves; inactive = flat fitted curve, though single readings scatter.
PROPERTY_LABEL: activity change, negative = cytotoxic

Known activity change, negative = cytotoxic results, listed for orientation:
C[C@@H](N)C(=O)O :: inactive
CCC(=O)O[C@]1(C(=O)SCF)[C@H](C)C[C@H]2[C@@H]3C[C@H](F)C4=CC(=O)C=C[C@]4(C)[C@@]3(F)[C@@H](O)C[C@@]21C :: inactive
CC(C)O :: inactive
CCOc1ccc(NC(N)=O)cc1 :: inactive
CCCCCCCCc1ccc(S(=O)(=O)O)cc1 :: inactive

Would you kindly look at the next entry?
Query: Fill blank: measured activity change, negative = cytotoxic of the compound CC1(O)CSC(C)(O)CS1 (configuration not stated) is ____.
Response: inactive

* * *

Target: Nuclear receptor subfamily 1 group I member 2 (Homo sapiens) (UniProt O75469)
Assay: Human pregnane X receptor (PXR) activation by small molecules, qHTS assay (AID 1346985); further: on the % scale 0 is the no-effect control and ±100 the full control effect; nearly all actives have a fitted effect of over 40% in size
Conditions: DPX-2 HepG2 CYP3A4-luciferase, 24 h; series mostly up to 38.3 µM
Inconclusive results are not listed. Activity calls are given as the source filed them. Calls follow the shape of the dose curve; as a rule, active = well fitted activation curve with a large enough effect in the repeat runs; inconclusive = weak or mixed curves; inactive = flat fitted curve, though single readings scatter.
Outcome (select one): active, inactive

Check out these entries, answers already filled in.
FC(F)(F)C(F)(F)C(F)(F)C(F)(F)C(F)(F)C(F)(F)C(F)(F)C(F)(F)Br :: inactive
C[C@]12CCC(=O)C=C1CC[C@@H]1[C@@H]2CC[C@@]2(C)[C@H]1CC[C@]2(O)C(=O)CO :: inactive
C[C@@H](N)C(=O)O :: inactive

Query: Each compound tested received a call. Report the one for Cc1cccc(C)c1NC(=O)CN1CCCCCC1 .
Response: inactive

Query: Another: Cc1c(-c2ccccc2)oc2c(C(=O)OCCN3CCCCC3)cccc2c1=O
Response: inactive

* * *

Experiment: qHTS RealTime-Glo MT Cell Viability Assay in HepG2 cells - 24 hour (AID 1224867); further: on the % scale 0 is the no-effect control and ±100 the full control effect; nearly all actives have a fitted effect of over 50% in size
Conditions: RealTime-Glo luminescence; series mostly up to 76.8 µM
Inconclusive results are not listed. Active and inactive are the calls of the source. The call rests on the fitted dose curve; in most records, active means well fitted cell-killing curve with a large enough effect in the repeat runs; inconclusive means weak or mixed curves; inactive means flat fitted curve, though single readings scatter.
PROPERTY_LABEL: activity change, negative = cytotoxicity

CN(C)C(=O)NC1(c2ccccc2)CCN(CCC[C@]2(c3ccc(Cl)c(Cl)c3)CCCN(C(=O)c3ccccc3)C2)CC1 :: -9.68% [at 15.8 µM] (inactive)
COC(=O)C(C)O (stereo not given) :: inactive
COC(=O)c1ccc(OC)cc1 :: inactive
CC1CN(c2ccccc2)NC1=O (stereo not given) :: inactive

Would you kindly look at the next entry?
Query: Fill blank: measured activity change, negative = cytotoxicity of the molecule CCC/C=C/CO is ____.
Response: inactive

* * *

Assay: qHTS assay for identifying genotoxic compounds that show differential cytotoxicity against isogenic chicken DT40 cell lines with known DNA damage response pathways - Rev3 mutant cell line (AID 743014); further: nearly all actives have a fitted effect of over 55% in size
Conditions: chicken DT40 Rev3-/- viability, CellTiter-Glo, 40 h; series mostly up to 68.4 µM
From the text: National Center for Advancing Translational Sciences [NCATS] NIH Chemical Genomics Center [NCGC] U.S. Environmental Protection Agency [EPA] National Institutes of Environmental Health Sciences [NIEHS] National Toxicology Program [NTP] U.S. Food and Drug Administration [FDA] DNA repair pathways play a critical role in cellular homeostasis by repairing DNA damage induced by endogenous processes and xenobiotics. […]
Inconclusive results are not listed. Activity calls are given as the source filed them. Calls come from the whole dose curve; as a rule, active = well fitted cell-killing curve with a large enough effect in the repeat runs; inconclusive = weak or mixed curves, or effect the other way; inactive = no such curve, though single readings can be large or run the other way.
Outcome (select one): active, inactive

Check out these entries, answers already filled in.
CCN(CC)CCNC(=O)COc1ccc(Cl)cc1 :: inactive
CC1(O)CSC(C)(O)CS1 (centres undefined) :: active
Cc1ccc([N+](=O)[O-])cc1Cl :: inactive
CCN(CCCc1ccccc1)CCCc1ccccc1 :: active

Query: Each molecule tested received a call. Report the one for CC(C)=CCCC(C)CCOC=O (centres undefined) .
Response: active

Query: Another: CCN(CC)CCOc1ccc(Cc2ccccc2)cc1
Response: active

Query: Another: O=C(O)[C@@H](O)[C@H](O)[C@H](O)[C@@H](O)C(=O)O
Response: inactive

Query: Another: C=CC1CO1 (centres undefined)
Response: inactive

* * *

Target: Voltage-gated inwardly rectifying potassium channel KCNH2 (Homo sapiens) (UniProt Q12809)
Sequence (Q12809 whole entry, looked up): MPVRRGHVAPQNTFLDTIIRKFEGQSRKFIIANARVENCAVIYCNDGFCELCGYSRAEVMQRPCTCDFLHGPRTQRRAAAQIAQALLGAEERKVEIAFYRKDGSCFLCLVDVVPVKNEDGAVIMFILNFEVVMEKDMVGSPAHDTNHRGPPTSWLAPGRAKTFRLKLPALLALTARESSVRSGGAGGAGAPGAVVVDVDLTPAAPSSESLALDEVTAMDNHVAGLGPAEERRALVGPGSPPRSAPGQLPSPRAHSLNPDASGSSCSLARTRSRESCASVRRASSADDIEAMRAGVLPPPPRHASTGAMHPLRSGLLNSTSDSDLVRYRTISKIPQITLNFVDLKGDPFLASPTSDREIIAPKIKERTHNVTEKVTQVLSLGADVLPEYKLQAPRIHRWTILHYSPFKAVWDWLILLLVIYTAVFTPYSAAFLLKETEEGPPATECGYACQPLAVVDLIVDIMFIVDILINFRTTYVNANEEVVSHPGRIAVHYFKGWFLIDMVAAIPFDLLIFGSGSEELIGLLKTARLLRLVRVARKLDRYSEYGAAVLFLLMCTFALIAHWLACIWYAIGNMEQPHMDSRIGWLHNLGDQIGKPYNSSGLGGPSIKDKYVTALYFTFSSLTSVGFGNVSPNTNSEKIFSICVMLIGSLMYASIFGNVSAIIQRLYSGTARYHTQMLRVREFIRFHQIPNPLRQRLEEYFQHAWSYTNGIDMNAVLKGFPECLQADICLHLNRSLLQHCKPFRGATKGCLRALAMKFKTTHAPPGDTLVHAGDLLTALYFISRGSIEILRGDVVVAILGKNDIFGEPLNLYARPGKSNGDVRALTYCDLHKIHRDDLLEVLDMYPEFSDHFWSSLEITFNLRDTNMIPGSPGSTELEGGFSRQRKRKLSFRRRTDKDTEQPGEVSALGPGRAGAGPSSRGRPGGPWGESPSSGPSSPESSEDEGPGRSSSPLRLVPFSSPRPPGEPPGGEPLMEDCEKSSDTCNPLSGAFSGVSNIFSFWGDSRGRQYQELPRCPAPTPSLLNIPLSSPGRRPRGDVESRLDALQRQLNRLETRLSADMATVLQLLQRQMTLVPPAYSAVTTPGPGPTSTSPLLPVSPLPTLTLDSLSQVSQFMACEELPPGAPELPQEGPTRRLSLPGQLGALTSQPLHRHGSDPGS
Assay: Human Ether-a-go-go-Related Gene (hERG) channel small molecule antagonists: fluorescence cell-based qHTS assay (AID 1671200);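 further: hERG-expressing U2OS cells given a thallium stimulus after FluxOR II dye loading; on the % scale 0 is the no-effect control and ±100 the full control effect; nearly all actives have a fitted effect of over 50% in size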
Details: hERG-U2OS cells, FluxOR thallium flux fluorescence; series mostly up to 76.8 µM
Records with an inconclusive call do not appear. Calls of active or inactive are those of the source. Calls follow the shape of the dose curve; as a rule, active = well fitted inhibition curve with a large enough effect in the repeat runs; inconclusive = weak or mixed curves; inactive = flat fitted curve, though single readings scatter.
PROPERTY_LABEL: Potency

CC(C)C(=O)OC/C=C/c1ccccc1 :: inactive
CCCC(CCC)(C(=O)OCC)C(=O)OCC :: inactive
O=C1CCC(C2CCCCC2)CC1 :: inactive
CCc1nnc(NS(=O)(=O)c2ccc(N)cc2)s1 :: inactive
CC(=O)N[C@@H](CC(C)C)C(=O)O :: inactive
COc1ccc2nc(NC(=O)Nc3ccccc3)sc2c1 :: inactive

Would you kindly look at the next entry?
Query: Which Potency is reported with Voltage-gated inwardly rectifying potassium channel KCNH2 (Homo sapiens) (UniProt Q12809) for this entry: O=C(C(Cl)Cl)N1CCOC12CCCCC2 ?
Response: inactive

* * *

Test: A CellTox Green Cytotoxicity Assay to monitor cytotoxicity in HEK293 cells - 24 hour (AID 1224875); further: nearly all actives have a fitted effect of over 45% in size
Details: CellTox Green fluorescence; series mostly up to 76.8 µM
Records with an inconclusive call do not appear. Active and inactive are the calls of the source. Calls come from the whole dose curve; as a rule, active = well fitted activation curve with a large enough effect in the repeat runs; inconclusive = weak or mixed curves; inactive = flat fitted curve, though single readings scatter.
Outcome (select one): 1 for active, 0 for inactive

Check out these entries, answers already filled in.
CCCCCCCCCCCCOCCOS(=O)(=O)O :: 1
CN1CCN(c2c(F)cc3c(=O)c(C(=O)O)cn4c3c2SCC4)CC1 :: 0

Attention now shifts to the item below.
Query: Each compound tested received a call. Report the one for CC1=C(O)C(=O)OC1C (stereo not drawn) .
Response: 0

* * *

Target: Voltage-gated inwardly rectifying potassium channel KCNH2 (Homo sapiens)
Experiment: Human Ether-a-go-go-Related Gene (hERG) channel small molecule antagonists: fluorescence cell-based qHTS assay (AID 1671200);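 further: hERG-expressing U2OS cells given a thallium stimulus after FluxOR II dye loading; on the % scale 0 is the no-effect control and ±100 the full control effect; nearly all actives have a fitted effect of over 50% in size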
Conditions: hERG-U2OS cells, FluxOR thallium flux fluorescence; series mostly up to 76.8 µM
Text: National Center for Advancing Translational Sciences [NCATS] U.S. Environmental Protection Agency [EPA] National Institutes of Environmental Health Sciences [NIEHS] National Toxicology Program [NTP] U.S. Food and Drug Administration [FDA] Mutations in the hERG channel cause Long QT (LQT) syndrome. LQT syndrome is a cardiac disorder which can cause ventricle arrhythmia and sudden death. Additionally, compounds which block the hERG channel can cause acquired LQT syndrome. […]
Inconclusive results are not listed. The source made the active and inactive calls. Calls come from the whole dose curve; as a rule, active = well fitted inhibition curve with a large enough effect in the repeat runs; inconclusive = weak or mixed curves; inactive = flat fitted curve, though single readings scatter.
Outcome (select one): active, inactive

OCC(CBr)(CBr)CBr :: inactive

Query: Each compound tested received a call. Report the one for O=C1CCN(c2ccccc2)N1 .
Response: inactive

* * *

Assay: qHTS assay to identify small molecule agonists of the endoplasmic reticulum stress response signaling pathway (AID 1159516); further: on the % scale 0 is the no-effect control and ±100 the full control effect
Details: ESRE-bla HeLa, ER stress beta-lactamase reporter, 5 h; series mostly up to 61 µM
Inconclusive results are not listed. Calls of active or inactive are those of the source. Calls follow the shape of the dose curve; as a rule, active = well fitted activation curve with a large enough effect in the signal ratio in the repeat runs (not every such curve was filed as active); inconclusive = weak or mixed curves, or effect the other way; inactive = flat fitted curve, though single readings scatter; the % refers to the signal ratio.
PROPERTY_LABEL: activation

Known activation results, listed for orientation:
CCOc1ccccc1N :: inactive
CCc1cc2cc(OC)c(OC)cc2c(Cc2ccccc2)n1 :: inactive
COc1ccccc1N1CCN(CCCNc2cc(=O)n(C)c(=O)n2C)CC1 :: inactive
CCCNC(C)C(=O)Nc1c(C)csc1C(=O)OC (configuration not stated) :: inactive
O=C(O)c1ccccc1Nc1cc(Cl)ccc1C(=O)O :: inactive
CCOc1ccc(NS(=O)(=O)c2ccc(N)cc2)nn1 :: inactive
CN1CCN(C2=Nc3cc(F)ccc3Cc3ccccc32)CC1 :: inactive
Cc1nc(N)nc(N)c1-c1ccc(Cl)c(Cl)c1 :: inactive

Query: Fill blank: measured activation of the compound C1CCOC1 is ____.
Response: inactive

Query: Another: Cc1cc2nc(N)sc2cc1C
Response: inactive

Query: Another: CCCCCCCCCCCCCCCCOP(=O)([O-])OCC[N+](C)(C)C
Response: inactive
